assay: cAMP Responsive Elements (CRE) small molecule antagonists, cell-based qHTS assay: qHTS cell viability counter screen (AID 2060913); note: % is set by controls: 0 for no effect and ±100 for the full control effect; nearly all actives have a fitted effect of over 40% in size
condition: CRE-bla HEK293T viability, CellTiter-Glo luminescence, 5 h; series mostly up to 92.4 µM
Records with an inconclusive call do not appear. Active and inactive are the calls of the source. Calls come from the whole dose curve; as a rule, active = well fitted cell-killing curve with a large enough effect in the repeat runs; inconclusive = weak or mixed curves, or effect the other way; inactive = flat fitted curve, though single readings scatter.
Tick one outcome: y = active, n = inactive

Take a look at these entries with their results.
{"molecule": "COc1cc(C[C@@H](C)N)c(OC)cc1C", "label": "n"}
{"molecule": "Nc1n[nH]c(N)n1", "label": "n"}
{"molecule": "O=[N+]([O-])c1ccc2ccc3cccc4ccc1c2c34", "label": "n"}

Qu. Call for entry CCCC[N+](CCCC)(CCCC)CCCC :
Ans. n

Qu. Call for entry O=S(=O)(Cl)c1ccccc1 :
Ans. n

Qu. Call for entry ClC(Cl)c1ccccc1 :
Ans. n

Qu. Call for entry C(COCC1CO1)OCC1CO1 (stereo unspecified) :
Ans. n

Qu. Call for entry O=[N+]([O-])c1ccc(Cl)c(Cl)c1Cl :
Ans. n

###

assay: cAMP Responsive Elements (CRE) small molecule antagonists, cell-based qHTS assay: qHTS cell viability counter screen (AID 2060913); note: % is set by controls: 0 for no effect and ±100 for the full control effect; nearly all actives have a fitted effect of over 40% in size
condition: CRE-bla HEK293T viability, CellTiter-Glo luminescence, 5 h; series mostly up to 92.4 µM
Inconclusive results are not listed. Calls of active or inactive are those of the source. Calls follow the shape of the dose curve; as a rule, active = well fitted cell-killing curve with a large enough effect in the repeat runs; inconclusive = weak or mixed curves, or effect the other way; inactive = flat fitted curve, though single readings scatter.
Tick one outcome: active, inactive

Take a look at these entries with their results.
{"compound": "O=C(NC(=O)c1ccccc1Cl)Nc1ccc(OC(F)(F)F)cc1", "label": "inactive"}
{"compound": "O=C(Cl)C(Cl)(Cl)Cl", "label": "inactive"}
{"compound": "C#CC(O)(C=CCl)CC (configuration not stated)", "label": "inactive"}

Qu. Call for entry N[C@@H](Cc1ccc(N(CCCl)CCCl)cc1)C(=O)O :
Ans. inactive

Qu. Call for entry O=S1(=O)OCCO1 :
Ans. inactive

Qu. Call for entry O=c1[nH]c2ccccc2n1CCCN1CCC(n2c(=O)[nH]c3cc(Cl)ccc32)CC1 :
Ans. inactive

Qu. Call for entry ClCC(Cl)CCl :
Ans. inactive

Qu. Call for entry CCc1cccc(CC)c1N(COC)C(=O)CCl :
Ans. inactive

###

assay: cAMP Responsive Elements (CRE) small molecule antagonists, cell-based qHTS assay: qHTS cell viability counter screen (AID 2060913); note: % is set by controls: 0 for no effect and ±100 for the full control effect; nearly all actives have a fitted effect of over 40% in size
condition: CRE-bla HEK293T viability, CellTiter-Glo luminescence, 5 h; series mostly up to 92.4 µM
Records with an inconclusive call do not appear. Activity calls are given as the source filed them. The call rests on the fitted dose curve; in most records, active means well fitted cell-killing curve with a large enough effect in the repeat runs; inconclusive means weak or mixed curves, or effect the other way; inactive means flat fitted curve, though single readings scatter.
Some molecules, each annotated with its measured viability change, negative = cytotoxic.

{"molecule": "CC1=C(C(=O)O)N2C(=O)[C@@H](N)[C@H]2SC1", "meas.value": "6.72% [at 18.9 µM] (inactive)"}
{"molecule": "C[CH2][Hg][N]1C(=O)C2C(C1=O)C1(Cl)C(Cl)=C(Cl)C2(Cl)C1(Cl)Cl (stereo unspecified)", "meas.value": "-25.3% [at 18.9 µM] (inactive)"}
{"molecule": "NCC(CC(=O)O)c1ccc(Cl)cc1 (stereo unspecified)", "meas.value": "-0.747% [at 0.349 µM] (inactive)"}
{"molecule": "Nc1c(Br)cc(Br)c2c1C(=O)c1ccccc1C2=O", "meas.value": "10% [at 18.9 µM] (inactive)"}
{"molecule": "O=C1c2ccccc2C(=O)c2ccccc21", "meas.value": "7.37% [at 18.9 µM] (inactive)"}
{"molecule": "Brc1c(Br)c(Br)c(Oc2c(Br)c(Br)c(Br)c(Br)c2Br)c(Br)c1Br", "meas.value": "-10% [at 18.9 µM] (inactive)"}
{"molecule": "CCCCCCCCCCCCN=C(N)N", "meas.value": "-6.77% [at 3.27 µM] (inactive)"}
{"molecule": "CO[C@@H]1[C@H](OC(=O)NC(=O)CCl)CC[C@]2(CO2)[C@H]1[C@@]1(C)O[C@@H]1CC=C(C)C", "meas.value": "9.39% [at 18.9 µM] (inactive)"}

Qu. Give its viability change, negative = cytotoxic value. Item: CC(=O)[O-].CC(=O)[O-].CC(=O)[O-].[Sb+3]
Ans. 0.272% [at 3.27 µM] (inactive)

Qu. Give its viability change, negative = cytotoxic value. Item: CC(=O)OCC1=C(C(=O)O)N2C(=O)[C@@H](N)[C@H]2SC1
Ans. -1.82% [at 18.9 µM] (inactive)

Qu. Give its viability change, negative = cytotoxic value. Item: Clc1c(Cl)c(Cl)c(Cl)c(Cl)c1Cl
Ans. 2.46% [at 8.39 µM] (inactive)

###

assay: cAMP Responsive Elements (CRE) small molecule agonists, cell-based qHTS assay: qHTS cell viability counter screen (AID 2060914);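 note: viability read after 3 h of compound exposure; nearly all actives have a fitted effect of over 50% in size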
condition: CRE-bla HEK293T viability, CellTiter-Glo luminescence, 5 h; series mostly up to 92.4 µM
Inconclusive results are not listed. Calls of active or inactive are those of the source. Calls come from the whole dose curve; as a rule, active = well fitted cell-killing curve with a large enough effect in the repeat runs; inconclusive = weak or mixed curves, or effect the other way; inactive = flat fitted curve, though single readings scatter.
Tick one outcome: label 1 = active, label 0 = inactive

Take a look at these entries with their results.
{"molecule": "CC(=O)NC1CCSC1=O (stereo not given)", "label": "label 0"}
{"molecule": "CC(Cl)C(=O)O (stereo not given)", "label": "label 0"}
{"molecule": "Oc1ccc(Cl)cc1Cl", "label": "label 0"}
{"molecule": "C1CN2CCN1CC2", "label": "label 0"}
{"molecule": "CON(C)C(=O)Nc1ccc(Cl)cc1", "label": "label 0"}
{"molecule": "Oc1cccc(Cl)c1", "label": "label 0"}
{"molecule": "C(CCOCC1CO1)COCC1CO1 (stereo not given)", "label": "label 0"}
{"molecule": "CC[N+]1(C)CCCC1", "label": "label 0"}

Qu. Call for entry C#CCOC(C(=O)OCCN(C)C)(c1ccccc1)c1ccccc1 :
Ans. label 0

Qu. Call for entry O=C1Nc2ccc(Cl)cc2C(c2ccccc2)=NC1O (stereo not given) :
Ans. label 0

###

assay: cAMP Responsive Elements (CRE) small molecule antagonists, cell-based qHTS assay: qHTS cell viability counter screen (AID 2060913); note: % is set by controls: 0 for no effect and ±100 for the full control effect; nearly all actives have a fitted effect of over 40% in size
condition: CRE-bla HEK293T viability, CellTiter-Glo luminescence, 5 h; series mostly up to 92.4 µM
Results filed as inconclusive are left out. Active and inactive are the calls of the source. The call rests on the fitted dose curve; in most records, active means well fitted cell-killing curve with a large enough effect in the repeat runs; inconclusive means weak or mixed curves, or effect the other way; inactive means flat fitted curve, though single readings scatter.
reported.metric: outcome

Previously resolved entries follow.
{"compound": "O=[N+]([O-])c1ccccc1O", "outcome": "inactive"}
{"compound": "Brc1ccccc1", "outcome": "inactive"}
{"compound": "CC(C)c1ccc(CO)cc1", "outcome": "inactive"}
{"compound": "Cc1nc(N(C)C)nc(OC(=O)N(C)C)c1C", "outcome": "inactive"}
{"compound": "CCCCCCI", "outcome": "inactive"}

Qu. Give its outcome value. Item: CC(=O)O
Ans. inactive

Qu. Give its outcome value. Item: C[C@]12C/C(=C/O)C(=O)C[C@@H]1CC[C@@H]1[C@@H]2CC[C@@]2(C)[C@H]1CC[C@]2(C)O
Ans. inactive

Qu. Give its outcome value. Item: CC(C)(C)OOC(C)(C)CCC(C)(C)OOC(C)(C)C
Ans. inactive

Qu. Give its outcome value. Item: ClC1(Cl)C2(Cl)C3(Cl)C4(Cl)C(Cl)(Cl)C5(Cl)C3(Cl)C1(Cl)C5(Cl)C24Cl (configuration not stated)
Ans. inactive

Qu. Give its outcome value. Item: CCOC(=O)C(C)OC(=O)c1cc(Oc2ccc(C(F)(F)F)cc2Cl)ccc1[N+](=O)[O-] (configuration not stated)
Ans. inactive

Qu. Give its outcome value. Item: C#CCC1=C(C)C(OC(=O)C2C(C=C(C)C)C2(C)C)CC1=O (configuration not stated)
Ans. inactive

Qu. Give its outcome value. Item: CCCCCCCCP(=O)(O)O
Ans. inactive

Qu. Give its outcome value. Item: CC(C)C1(C)N=C(c2nc3ccccc3cc2C(=O)O)NC1=O (configuration not stated)
Ans. inactive

###

assay: cAMP Responsive Elements (CRE) small molecule agonists, cell-based qHTS assay: qHTS cell viability counter screen (AID 2060914);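 note: viability read after 3 h of compound exposure; nearly all actives have a fitted effect of over 50% in size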
condition: CRE-bla HEK293T viability, CellTiter-Glo luminescence, 5 h; series mostly up to 92.4 µM
Inconclusive results are not listed. Active and inactive are the calls of the source. Calls follow the shape of the dose curve; as a rule, active = well fitted cell-killing curve with a large enough effect in the repeat runs; inconclusive = weak or mixed curves, or effect the other way; inactive = flat fitted curve, though single readings scatter.
Tick one outcome: Y for active, N for inactive

Take a look at these entries with their results.
{"compound": "O=C1C[C@@H]2OCC=C3CN4CC[C@]56c7ccccc7N1[C@H]5[C@H]2[C@H]3C[C@H]46", "label": "N"}
{"compound": "CCN(C)N=O", "label": "N"}
{"compound": "Clc1cccc(N2CCNCC2)c1", "label": "N"}
{"compound": "C[C@H](N)[C@H](O)c1ccc(O)c(O)c1", "label": "N"}
{"compound": "CN(CCCC(=O)c1cccnc1)N=O", "label": "N"}

Qu. Call for entry O=Cc1ccc2c(c1)OCO2 :
Ans. N

Qu. Call for entry CC(O)C#N (centres undefined) :
Ans. N

Qu. Call for entry N#Cc1cc(I)c(O)c(I)c1 :
Ans. N

Qu. Call for entry Nc1c(Cl)c(Cl)nc(C(=O)O)c1Cl :
Ans. N

Qu. Call for entry COC(=O)c1sccc1S(=O)(=O)NC(=O)Nc1nc(C)nc(OC)n1 :
Ans. N

Qu. Call for entry CC(C)(C)c1ccc(OP(=O)(Oc2ccccc2)Oc2ccccc2)cc1 :
Ans. N

Qu. Call for entry Nc1ccccc1C(=O)Oc1ccc2ccccc2c1 :
Ans. N

Qu. Call for entry CCOP(=O)(Sc1ccccc1)Sc1ccccc1 :
Ans. N

Qu. Call for entry CC(O)C(=O)[O][Hg][c]1ccccc1 (centres undefined) :
Ans. Y

Where do these numbers come from? They come from PubChem BioAssay (Tox21).
